- subject_of_test: dengue type 4 virus (DENV-4), strain 814669, virions (dengue type 4 virus, UniProt P09866 280-774; P09866 114-279)
- assay_info: ELISA, virion-coated plate, Fab from ~300 µg/ml
For each entry below, report its ELISA titer of Fab binding value.

Field request: ELISA titer of Fab binding | item: chimpanzee Fab 5D9 (Fab, V domains shown) VH: EVQLLESGPGLVKPSETLSLTCTVSGGSISDFYWSWLRQSPGKGLEWIGVAHSRVSAYYNPSLKSRVTISVDTSKNQLSLRLSAVTAADAALYYCARQGTGTTGVSEDPFDLWGQGTKVIVSL VL: ELTQSPSSLSASVGDRVTITCRASQGISNRLNWYQQKPGQGPKFLMYDASSLVSGVPSRFSGSGSGTDFTLTISSLQPEDFAVYYCQQFNSYPLTFGGGTKLEIKR
3.41 log10 of reciprocal dilution

Field request: ELISA titer of Fab binding | item: chimpanzee Fab 3E4 (Fab, V domains shown) VH: VQLLEQSGAEVKKPGGSVKVSCKVSGGTFSRNPISWVRQAPGQGLEWMSVIVPIVGTTKHAQKFQGRVTITADESTSTAYMELSSLRSEDTAVYYCATYRRYADVSSYSEYWGQGTLVTVSS VL: ELTQSPLSLPVTLGQPASISCRSSQNLVHSDGNTYLSWIQQRPGQPPRLLIYKVSNRDSGVPDRFSGSGAGTDFTLKITRVEAEDVGLYYCVQGVQFPITFGQGTKLEIKR
4.61 log10 of reciprocal dilution

Field request: ELISA titer of Fab binding | item: chimpanzee Fab 5A7 (Fab, V domains shown) VH: EVQLLESGGGLVQPGGSLRLSCAASGVTFSSYWMHWVRQAPGKGLEWVSRINSDGSSTNYADSVEGRFTISRDNAKNTLYLQMNSLRAEDTAVYYCSRGGLWDWSPRRIEETKTPFDYWGQGTLVTVSS VL: ELTQGPATLSLSPGERATLSCRAGQSLDSSLLSWYQQKPGQAPRLLMYDASTRAPGVPARFSGSGSGTDFTLTISSLQPEDFAVYYCQQHYNLPRTFGQGTKLEIKR
3.41 log10 of reciprocal dilution

Field request: ELISA titer of Fab binding | item: chimpanzee Fab 7G4 (Fab, V domains shown) VH: EVQLLESGGGLVQPGGSLTLSCAASGFTFSSYWMHWVRQAPGKGPEWVALIKKDGSEKYYAESVKGRFTISRDNAKNSLYLQMNSLRAEDTAVYYCTRRITTLTVISDAFDIWGQGTMVTVSS VL: ELTQSPSTLSASVGDRVTITCRASQGISSWLAWYQQKPGKAPKFLIYKASSLESGVPSRFSGSGSGTEFTLTISSLQPDDFATYYCQQYGSYPLTFGPGTKVDIKR
4.01 log10 of reciprocal dilution

Field request: ELISA titer of Fab binding | item: chimpanzee Fab 3C1 (Fab, V domains shown) VH: EVQLLESGAEVKKPGGSVKVSCKVSGGTLSSYGISWVRQAPGQGPEWMGVIIPIRGTANYAQKFQGRVTYTADESTSTVYMELSSLRSEDTAVYYCATGRRGRYPTGSFDYWGQGALVTVSS VL: ELQMTQSPSTLSASVGDRVTVTCRASEDLNKWLAWYQQKPGKAPKLLIYKASSLESGVPSRFSGSGSGTEFTLTISSLQPDDFATYYCQQYQSYPYTFGPGTKLEIKR
3.71 log10 of reciprocal dilution
